The reported numbers originate from ChEMBL document CHEMBL1157776.

system: HCT-15; assay: Cytotoxicity against human HCT15 cells after 2 days by automatic ELISA reader system; assay type: functional, cell-based; settings: HCT-15, 48 h
Where a name gives a salt, the structure may show the parent alone.
Exercise: for every item that follows, state its recorded pIC50.
Answers are plain numbers, as −log10 of the molar value.

COMPOUND: Oc1ccc(-c2cc(-c3ccccc3)cc(-c3ccsc3)n2)cc1
pIC50: 5.96
//
COMPOUND: Oc1cccc(-c2cc(-c3ccccc3)cc(-c3ccsc3)n2)c1
pIC50: 5.12
//
COMPOUND: Oc1cccc(-c2cc(-c3ccccc3)nc(-c3ccccn3)c2)c1
pIC50: 4.68
//
COMPOUND: Oc1cccc(-c2cc(-c3ccccc3)cc(-c3ccco3)n2)c1
pIC50: 4.87
//
COMPOUND: CC[C@@]1(O)C(=O)OCc2c1cc1n(c2=O)Cc2cc3ccccc3nc2-1 [CAMPTOTHECIN]
pIC50: 6.30
//
COMPOUND: Oc1cccc(-c2cc(-c3ccccc3)nc(-c3ccco3)c2)c1
pIC50: 4.86
//
COMPOUND: Oc1cccc(-c2cc(-c3ccccc3)nc(-c3ccccc3)c2)c1
pIC50: 4.75
//
COMPOUND: Oc1ccc(-c2cc(-c3ccccc3)cc(-c3ccc(O)cc3)n2)cc1
pIC50: 5.52
//
COMPOUND: Oc1cccc(-c2cc(-c3ccccc3)cc(-c3ccccc3)n2)c1
pIC50: 5.00
//
COMPOUND: COc1cccc2c1C(=O)c1c(O)c3c(c(O)c1C2=O)C[C@@](O)(C(=O)CO)C[C@@H]3O[C@H]1C[C@H](N)[C@H](O)[C@H](C)O1 [DOXORUBICIN HYDROCHLORIDE]
pIC50: 5.92

Below are 2 compounds. Give each one its pIC50.
1. Oc1cccc(-c2cc(-c3ccccc3)cc(-c3cccc(O)c3)n2)c1
2. Oc1ccc(-c2cc(-c3ccccc3)cc(-c3cccs3)n2)cc1

Response:
1. 4.74
2. 4.90
